# experiment_summary: Silymarin saturated solubility with CAPTISOL® (Example 1, HPLC)
# measurement_context: water, 25 °C, thermodynamic from solid, Solubility (mg/ml) of flavonolignan components of silymarin, H2O, saturated with excess silymarin
recorded_endpoint: solubility (µg/mL)

cpd_smiles	solubility (µg/mL)
COc1cc([C@H]2Oc3c(O)cc([C@H]4Oc5cc(O)cc(O)c5C(=O)[C@@H]4O)cc3[C@@H]2CO)ccc1O	40

[A] COc1cc([C@@H]2Oc3cc([C@H]4Oc5cc(O)cc(O)c5C(=O)[C@@H]4O)ccc3O[C@H]2CO)ccc1O
[B] COc1cc([C@@H]2Oc3c(O)cc([C@H]4Oc5cc(O)cc(O)c5C(=O)[C@@H]4O)cc3[C@H]2CO)ccc1O
[C] COc1cc([C@H]2Oc3cc([C@H]4Oc5cc(O)cc(O)c5C(=O)[C@@H]4O)ccc3O[C@@H]2CO)ccc1O
# rank_down: sort by solubility, max first API: response body holds the labels in the requested order.
B, A, C
(B: 460 µg/mL, A: 50 µg/mL, C: 20 µg/mL)

These entries and their values trace back to patent US10702568B2.
